Measured IC50 values are reported for all entries that follow.
- target: Menin-MLL (Homo sapiens, UniProt O00255)
- Construct: His-Menin (M1-L615 end); purchased BIORTUS BP9210
- Sequence (O00255 1-615 isoform O00255-1): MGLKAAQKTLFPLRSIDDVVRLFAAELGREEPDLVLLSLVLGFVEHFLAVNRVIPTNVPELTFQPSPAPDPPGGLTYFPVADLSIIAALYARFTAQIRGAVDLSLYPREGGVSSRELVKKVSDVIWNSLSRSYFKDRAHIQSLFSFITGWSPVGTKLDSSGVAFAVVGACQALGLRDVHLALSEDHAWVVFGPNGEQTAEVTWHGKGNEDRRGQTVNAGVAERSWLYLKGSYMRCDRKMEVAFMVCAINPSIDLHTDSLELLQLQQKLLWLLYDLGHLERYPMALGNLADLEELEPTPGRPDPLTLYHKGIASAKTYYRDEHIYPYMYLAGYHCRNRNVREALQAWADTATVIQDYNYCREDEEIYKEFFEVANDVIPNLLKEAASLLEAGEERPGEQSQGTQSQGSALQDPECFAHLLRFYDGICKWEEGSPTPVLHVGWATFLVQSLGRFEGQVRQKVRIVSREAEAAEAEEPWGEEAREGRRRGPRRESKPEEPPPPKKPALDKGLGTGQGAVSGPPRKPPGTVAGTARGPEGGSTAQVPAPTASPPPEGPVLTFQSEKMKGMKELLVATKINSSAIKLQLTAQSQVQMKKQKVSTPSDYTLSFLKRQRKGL
- experiment_notes: Inhibitory activity against Menin-MLL binding (fluorescence polarization)
- assay_setup: Menin-MLL IC50, fluorescence polarization; 150 nM His-Menin, 15 nM FITC-MLL; 25°C for 60 min
assay_metric: IC50 (nM)

- Cc1nc(F)c2c(-c3ccc(F)cc3C(=O)N3CCOCC3C)cc(C3CN(C(C)C4CCN(C(=O)C5CC5F)CC4)C3)cn12 (stereo not drawn) [Example 301]: 9
- CCOC(=O)N1CCN(CCC[C@H](C(C)C)N2CC(c3cc(-c4ccc(F)cc4C(=O)N(CC)C(C)C)c4cnc(C)n4c3)C2)CC1 [Example 471]: 4.8
- CCN(C(=O)c1cc(F)ccc1-c1cc(C2(F)CN(C(=O)C3NC4CCC3CC4)C2)cn2c(C)ncc12)C(C)C (stereo not drawn) [Example 75]: 17.5
